# System: Fibroblast
# ASSAY TEXT: Incucyte cell viability with human fibroblast; note: unitless GR value; below 1 slowed growth and below 0 cell loss
# Assay type: toxicity, cell-based
# CONDITION SUMMARY: 24 h, 10 µM, compound concentration 10 uM, replicate number 2
Square brackets hold non-standard residues; d marks the D form. Peptide text beside a SMILES is read from it.
MEASUREMENT TYPE: Growth Rate

INSERT INTO assay_data (compound, test_system, measurement_type, result) VALUES
  ('NC(=O)c1cccc(NC(=O)CCC(=O)NCCc2cn(CCNS(=O)(=O)c3cccc(C(=O)O)c3)nn2)c1', 'Fibroblast', 'Growth Rate', 1),
  ('O=C(CCCCCCC(=O)Nc1ccc([C@H]2O[C@@H](CSc3nc(-c4ccccc4)c(-c4ccccc4)o3)C[C@@H](c3ccc(CO)cc3)O2)cc1)NO [TUBACIN]', 'Fibroblast', 'Growth Rate', -0.34),
  ('Cn1cc(NC(=O)c2cc(F)cc(F)c2)c(C(=O)NC2CCNCC2)n1', 'Fibroblast', 'Growth Rate', 1),
  ('CC(=O)Nc1ccc(OC[C@](C)(O)C(=O)Nc2ccc([N+](=O)[O-])c(C(F)(F)F)c2)cc1', 'Fibroblast', 'Growth Rate', 1),
  ('C[C@H](NC(=O)c1cn(C2(C#N)CC2)cn1)C(=O)Nc1nc(-c2cccc(-c3ccn(C)n3)c2)cs1', 'Fibroblast', 'Growth Rate', 1),
  ('CC(=O)N[C@@H](C)C(=O)N[C@@H](CCC(=O)O)C(=O)N[C@H](C(=O)N[C@@H](C=O)CC(=O)O)C(C)C (Ac-AEV[dD]-aldehyde)', 'Fibroblast', 'Growth Rate', 0.14),
  ('Cc1ccc(N2C(=O)/C(=C/C=C/c3ccco3)C(=O)NC2=S)cc1Cl', 'Fibroblast', 'Growth Rate', 1),
  ('COc1cc2c(NC3CCN(CC4CCCCC4)CC3)nc(N3CCCN(C(C)C)CC3)nc2cc1OCCCN1CCCCC1', 'Fibroblast', 'Growth Rate', -0.13);

====

# System: U2OS
# ASSAY TEXT: Incucyte cell viability with U2OS; note: unitless GR value; below 1 slowed growth and below 0 cell loss
# Format: toxicity, cell-based
# CONDITION SUMMARY: human, 24 h, 10 µM, compound concentration 10 uM, replicate number 1
Square brackets hold non-standard residues; d marks the D form. Peptide text beside a SMILES is read from it. * marks the point of attachment. Cbz = O=C(OCc1ccccc1)*; CH2Cl = ClC*; CH2F = FC*
MEASUREMENT TYPE: Growth Rate

INSERT INTO measurements (molecule, measurement_type, result) VALUES
  ('Cc1ncccc1-c1cnc(NCc2c(F)ccc3c2CCO3)n2cnnc12', 'Growth Rate', 1),
  ('CC(=O)N[C@@H](CC(C)C)C(=O)N[C@@H](CCC(=O)O)C(=O)N[C@@H](Cc1cnc[nH]1)C(=O)N[C@@H](CC(=O)O)C(=O)CCl.O=C(O)C(F)(F)F (Ac-LEHD-CH2Cl)', 'Growth Rate', 0.62),
  ('OC1CN=C2c3ccn([C@@H]4O[C@H]([C@H](O)c5ccc(Cl)cc5)[C@@H](O)[C@H]4O)c3N=CN21 (some centres not stated)', 'Growth Rate', 1),
  ('CC(C)c1cc(C(=O)N2Cc3ccc(CN4CCN(C)CC4)cc3C2)c(O)cc1O', 'Growth Rate', -0.07),
  ('COc1cc2c(NCC3CCN(C)CC3)cc(-c3ccc(C)o3)nc2cc1OCCCN1CCCC1', 'Growth Rate', -0.64),
  ('COc1nc(N)nc(Nc2cc(S(N)(=O)=O)ccc2N[C@@H](c2cccc3c2OC(F)(F)O3)c2ncccc2Cl)n1', 'Growth Rate', 1),
  ('CC(C)C[C@@H](C=O)NC(=O)[C@@H](NS(=O)(=O)c1ccc(F)cc1)C(C)C', 'Growth Rate', 0.76),
  ('Cn1ncc2c(-c3c(-c4ccc(F)cn4)nn4c3COC(C)(C)C4)ccnc21', 'Growth Rate', 0.55),
  ('NC(=O)[C@H]1CCCCc2c1[nH]c1ccc(Cl)cc21', 'Growth Rate', 0.17),
  ('COC(=O)CC[C@H](NC(=O)[C@H](C)NC(=O)OCc1ccccc1)C(=O)N[C@H](C(=O)N[C@@H](CC(=O)OC)C(=O)CF)C(C)C (Cbz-AE(OMe)VD(OMe)-CH2F)', 'Growth Rate', 1),
  ('C=CC(=O)Nc1cccc(-c2c[nH]cc2CN(C)CCN)c1', 'Growth Rate', 0.21),
  ('CNC(=O)c1cc(Nc2ccnc(Nc3ccc(CCNC(=O)OC(C)(C)C)cc3)n2)[nH]n1', 'Growth Rate', 0.07),
  ('N[C@@H](CC(=O)N1CCN(C(c2ccc(F)cc2)c2ccc(F)cc2)CC1)C(=O)N1Cc2ccccc2C1', 'Growth Rate', 1),
  ('CC(=O)N[C@@H](Cc1ccc(O)cc1)C(=O)N[C@H](C(=O)N[C@@H](C)C(=O)N[C@@H](CC(=O)O)C(=O)COC(=O)c1c(C)cccc1C)C(C)C', 'Growth Rate', 1),
  ('O=C(CCCCCCC(=O)Nc1ccc([C@H]2O[C@@H](CSc3nc(-c4ccccc4)c(-c4ccccc4)o3)C[C@@H](c3ccc(CO)cc3)O2)cc1)NO', 'Growth Rate', 1),
  ('CNc1ncc2cc(-c3cc(NC(=O)NCCC(C)(C)C)c(F)cc3C)c(C)nc2n1', 'Growth Rate', -0.28),
  ('CCC(=O)N1CCOc2c(cc(-c3cc(OC)cc(OC)c3)cc2C(=O)N[C@H]2CCCN(C)C2)C1', 'Growth Rate', 0.42),
  ('CC(=O)N1CCC(Nc2cc(C(=O)NC[C@H](O)CN3CCc4ccccc4C3)ncn2)CC1', 'Growth Rate', 0.26),
  ('CCCOc1ccc(CCc2nc3cc(-c4c(C)noc4C)ccc3n2CCN2CCOCC2)cc1', 'Growth Rate', 0.57),
  ('COC(=O)CC[C@H](NC(=O)[C@H](Cc1c[nH]c2ccccc12)NC(=O)OCc1ccccc1)C(=O)N[C@@H](Cc1cnc[nH]1)C(=O)N[C@@H](CC(=O)OC)C(=O)CF (Cbz-WE(OMe)HD(OMe)-CH2F)', 'Growth Rate', 0.82),
  ('CC(C)(O)c1ccc(-c2nc3c(F)cc(F)cc3c(=O)[nH]2)cc1', 'Growth Rate', 0.23),
  ('Cc1cc(-c2ccc3nc(C4CCOCC4)n(CCOC(F)(F)F)c3c2)cn(C)c1=O', 'Growth Rate', -0.23),
  ('CCN(c1cc(-c2ccc(CN3CCOCC3)cc2)cc(C(=O)NCc2c(C)cc(C)[nH]c2=O)c1C)C1CCOCC1', 'Growth Rate', 0.43),
  ('COc1ccccc1C(=O)Nc1cc2c(cc1N1CCCCC1)n(C)c(=O)n2C', 'Growth Rate', 1),
  ('CC(C)(C)OC(=O)Nc1ccc(CNc2nccc(Nc3cc(C(=O)OC(C)(C)C)[nH]n3)n2)cc1', 'Growth Rate', 0.42),
  ('O=C(C=Cc1ccc(O)cc1)c1ccc(O)cc1O', 'Growth Rate', 0.9),
  ('Nc1nc2cc(CC[C@H]3C[C@@H](n4ccc5c(N)ncnc54)[C@H](O)[C@@H]3O)ccc2cc1Br', 'Growth Rate', 0.19),
  ('CN1CCN(c2ccc3nc(-c4c(N)c5c(F)cccc5[nH]c4=O)[nH]c3c2)CC1', 'Growth Rate', -0.35),
  ('CC(=O)N[C@@H](C)C(=O)N[C@@H](CCC(=O)O)C(=O)N[C@H](C(=O)N[C@@H](C=O)CC(=O)O)C(C)C (Ac-AEV[dD]-aldehyde)', 'Growth Rate', 0.88),
  ('CCn1c(=O)c(C)cn(Cc2nnc(-c3ccc(F)c(O)c3F)s2)c1=O', 'Growth Rate', 1),
  ('COc1ccc(N(C(=O)Oc2c(C)cccc2C)c2ccnc(Nc3ccc(N4CCN(C)CC4)cc3)n2)c(OC)c1', 'Growth Rate', 0.04),
  ('O=C(NC[C@H](O)CN1CCc2ccccc2C1)c1cc(NC2COC2)ncn1', 'Growth Rate', 1);

====

# Test system: HEK-293T
# ASSAY TEXT: Incucyte cell viability with HEK293T; note: unitless GR value; below 1 slowed growth and below 0 cell loss
# Format: toxicity, cell-based
# CONDITION SUMMARY: human, 24 h, 10 µM, compound concentration 10 uM, replicate number 1
Square brackets hold non-standard residues; d marks the D form. Peptide text beside a SMILES is read from it. * marks the point of attachment. Benzoyl(4-OPh) = O=C(c1ccc(Oc2ccccc2)cc1)*; Lys(Et2) = CCN(CC)CCCC[C@H](N)C(=O)O; d(aIle) = CC[C@H](C)[C@@H](N)C(=O)O; Gly(cPent) = N[C@H](C(=O)O)C1CCCC1; Cbz = O=C(OCc1ccccc1)*; NH(propargyl) = C#CCN*; CH2F = FC*
MEASUREMENT TYPE: Growth Rate

INSERT INTO assay_data (compound, measurement_type, result) VALUES
  ('CCCn1/c(=N/C(=O)c2cccc(C(N)=O)c2)[nH]c2ccccc21', 'Growth Rate', 0.77),
  ('COC(=O)CC[C@H](NC(=O)[C@H](Cc1c[nH]c2ccccc12)NC(=O)OCc1ccccc1)C(=O)N[C@@H](Cc1cnc[nH]1)C(=O)N[C@@H](CC(=O)OC)C(=O)CF (Cbz-WE(OMe)HD(OMe)-CH2F)', 'Growth Rate', 0.94),
  ('CCC(NC(=O)C(CC(C)C)NC(=O)OCc1ccccc1)C(=O)C(=O)NCCCN1CCOCC1.O=C(O)C(F)(F)F (stereo not drawn)', 'Growth Rate', 0.73),
  ('CCC[C@@H]1CNCc2c1[nH]c(=O)c(C#N)c2N1CCC2(CC1)CC2.Cl', 'Growth Rate', 0.66),
  ('Cc1ccc(N2C(=O)/C(=C/C=C/c3ccco3)C(=O)NC2=S)cc1Cl', 'Growth Rate', 0.94),
  ('CC#C[C@]1(O)CC[C@H]2[C@@H]3CCC4=CC(=O)CCC4=C3[C@@H](c3ccc(N(C)C)cc3)C[C@@]21C', 'Growth Rate', 0.49),
  ('O=C(NC[C@H](O)CN1CCc2ccccc2C1)c1cc(NC2COC2)ncn1', 'Growth Rate', 0.54),
  ('O=C(O)/C(S)=C/c1ccc(I)cc1', 'Growth Rate', 0.71),
  ('C#CCNC(=O)[C@H](CO)NC(=O)[C@H](CCCCN(CC)CC)NC(=O)[C@H](NC(=O)[C@@H](NC(=O)c1ccc(Oc2ccccc2)cc1)C1CCCC1)[C@@H](C)CC ({Benzoyl(4-OPh)}-[Gly(cPent)][d(aIle)][Lys(Et2)]S-{NH(propargyl)})', 'Growth Rate', 0.58),
  ('CCCC1O[C@@H]2C[C@H]3[C@@H]4CCC5=CC(=O)C=C[C@]5(C)[C@H]4[C@@H](O)C[C@]3(C)[C@]2(C(=O)CO)O1 (stereo partly drawn) [BUDESONIDE]', 'Growth Rate', 0.73),
  ('CNC(=O)c1cc(Nc2ccnc(Nc3ccc(CCNC(=O)OC(C)(C)C)cc3)n2)[nH]n1', 'Growth Rate', 0.07),
  ('CC(=O)O[C@]1(C(C)=O)CC[C@H]2[C@@H]3CCC4=CC(=O)CCC4=C3[C@@H](c3ccc(N(C)C)cc3)C[C@@]21C [ULIPRISTAL ACETATE]', 'Growth Rate', 0.78),
  ('COc1ccc2nc3[nH]nc(C)c3c(NCCOCCO)c2c1', 'Growth Rate', 0.57),
  ('Cl.Cl.Nc1ncnc2c1ncn2[C@@H]1O[C@H](C(=O)N2CCN(CC(=O)Nc3cccc4c3CNC4=O)CC2)[C@@H](O)[C@H]1O', 'Growth Rate', 0.67),
  ('CCC(CC)(NC(=O)C(C)C)C(=O)N[C@@H](CCCNC(=N)N)C(=O)NC1(C(=O)NC(c2ccc(F)cc2)c2ccc(F)cc2)CCCC1', 'Growth Rate', 0.95),
  ('CNC[C@@H](O)COc1ccc(Cl)c(-c2nc(-c3c(C)noc3C)c(C)c(N3CC4(CCN(C(=O)OC)CC4)C3)n2)c1', 'Growth Rate', 0.46),
  ('CCCOc1cccc(Oc2cc3c(cc2NS(=O)(=O)c2cccc(C(=O)NCCOCCOCCOCC(=O)N[C@H](C(=O)N4C[C@H](O)C[C@H]4C(=O)NCc4ccc(-c5scnc5C)cc4)C(C)(C)C)c2)n(C)c(=O)n3C)c1', 'Growth Rate', 0.11),
  ('CN1CCN(c2ccc3nc(-c4c(N)c5c(F)cccc5[nH]c4=O)[nH]c3c2)CC1', 'Growth Rate', -0.39);

Origin of the recorded values: ChEMBL document CHEMBL5724709
